FYI, the data here is from patent US20260258032A1.

# target-entity: JH2 domain of human Tyk2 (Homo sapiens)
# Construct: 10×His-tagged TYK2 JH2 domain (amino acid 575-876)
# Sequence (P29597 575-876): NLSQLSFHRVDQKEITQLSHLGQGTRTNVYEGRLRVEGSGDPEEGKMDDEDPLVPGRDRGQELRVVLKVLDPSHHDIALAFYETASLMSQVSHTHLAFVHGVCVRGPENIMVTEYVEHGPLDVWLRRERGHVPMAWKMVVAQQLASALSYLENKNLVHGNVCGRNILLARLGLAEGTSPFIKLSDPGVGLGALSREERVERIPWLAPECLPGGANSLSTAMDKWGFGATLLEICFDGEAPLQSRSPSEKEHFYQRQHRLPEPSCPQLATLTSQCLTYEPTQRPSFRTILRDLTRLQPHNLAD
# measurement-notes: JH2 biochemical assay (TR-FRET probe displacement)
# Type: binding
# test-conditions: JH2 biochemical assay
pIC50: −log10 of the molar value. Structures can show the parent of a compound that is named as a salt.

- compound: "CC(=O)Nc1cc2c(cn1)C1(CC1)CN2c1cc(-c2cnn(C)c2F)nc(C(C)(F)F)n1"
  pIC50: "≥ 8.00"
- compound: "CC(=O)Nc1cc2c(cn1)C1(CC1)CN2c1cc(-c2ncn(C)n2)nc(C(C)(F)F)n1"
  pIC50: "≥ 8.00"
- compound: "CC(=O)Nc1cc2c(cn1)C1(CC1)CN2c1cc(C)cc(C23COC(C)(C2)C3)n1"
  pIC50: "7.00 to 8.00"
- compound: "CC(=O)Nc1cc2c(cn1)C1(CC1)CN2c1cc(C)nc(C2(C)CC2)n1"
  pIC50: "≥ 8.00"
- compound: "CC(=O)Nc1cc2c(cn1)C1(CC1)CN2c1cc(C)cc(-c2cnn(C(C)C)c2)n1 [Example 263, trifluoroacetate]"
  pIC50: "7.00 to 8.00"
- compound: "CC(=O)Nc1cc2c(cn1)C1(CC1)CN2c1cc(C)nc(N2CCCC2)n1"
  pIC50: "7.00 to 8.00"
- compound: "COCCC1(C#N)CN(c2cc(C)cc(N3CC4(CC4)c4cnc(NC(C)=O)cc43)n2)C1"
  pIC50: "7.00 to 8.00"
- compound: "CC(=O)Nc1cc2c(cn1)C1(CC1)CN2c1cc(NC2CC23CC3)nc(C(C)(F)F)n1 (centres unmarked) [Example 176, trifluoroacetate]"
  pIC50: "≥ 8.00"
- compound: "CC(=O)Nc1cc2c(cn1)C1(CC1)CN2c1cc(C)nc(OC2CC(C)C2)n1 (centres unmarked)"
  pIC50: "6.00 to 7.00"
- compound: "CC(=O)Nc1cc2c(cn1)C1(CC1)CN2c1cc(NCC2CCN2C)nc(C(C)(F)F)n1 (centres unmarked)"
  pIC50: "7.00 to 8.00"
- compound: "CC(=O)Nc1cc2c(cn1)C1(CC1)CN2c1cc(C)cc(N2CCN(C)C(C(F)F)C2)n1 (centres unmarked)"
  pIC50: "6.00 to 7.00"
- compound: "CC(=O)Nc1cc2c(cn1)C1(CC1)CN2c1cc(C)nc(N2CCC(F)(F)C2)n1"
  pIC50: "≥ 8.00"
- compound: "CC(=O)Nc1cc2c(cn1)C1(CC1)CN2c1cc(OCCN(C)C)nc(C(C)(F)F)n1 [Example 140, trifluoroacetate]"
  pIC50: "7.00 to 8.00"
- compound: "CC(=O)Nc1cc2c(cn1)C1(CC1)CN2c1cc(C)nc(N2CCC3(CC2)COC3)n1 [Example 228, trifluoroacetate]"
  pIC50: "6.00 to 7.00"
- compound: "CC(=O)Nc1cc2c(cn1)C1(CCOCC1)CN2c1ccnc(C(C)(F)F)n1"
  pIC50: "≤ 6.00"
- compound: "CC(=O)Nc1cc2c(cn1)C1(CC1)CN2c1nc(C2CCOC2)c(C)s1 (centres unmarked) [Example 82, trifluoroacetate]"
  pIC50: "≥ 8.00"
- compound: "CC(=O)Nc1cc2c(cn1)C1(CC1)CN2c1cc(C)nc(-c2cnn(C3COC3)c2)n1 [Example 251, trifluoroacetate]"
  pIC50: "7.00 to 8.00"
- compound: "CC(=O)Nc1cc2c(cn1)C1(CC1)CN2c1cc(NC[C@H]2CCO2)nc(C(C)(F)F)n1"
  pIC50: "≥ 8.00"
- compound: "CC(=O)Nc1cc2c(cn1)C1(CC1)CN2c1nc(C)cc(F)n1 [Example 331, trifluoroacetate]"
  pIC50: "6.00 to 7.00"
- compound: "CC(=O)Nc1cc2c(cn1)C1(CC1)CN2c1cccc(C2CCOC2)n1 (centres unmarked)"
  pIC50: "≥ 8.00"
- compound: "CC(=O)Nc1cc2c(cn1)C1(CC1)CN2c1cc(-c2ccc(C)nc2)nc(C(C)(F)F)n1"
  pIC50: "≥ 8.00"
- compound: "CC(=O)Nc1cc2c(cn1)C1(CC1)CN2c1nc(C)c(C)s1"
  pIC50: "7.00 to 8.00"
- compound: "CC(=O)Nc1cc2c(cn1)C1(CC1)CN2c1cc(C)nc(N2CCN(C)CC2)n1"
  pIC50: "6.00 to 7.00"
- compound: "CC(=O)Nc1cc2c(cn1)C1(CC1)CN2c1cc(C)nc(-c2cnn(C3CNC3)c2)n1 [Example 269, trifluoroacetate]"
  pIC50: "6.00 to 7.00"
- compound: "COC1(c2cccc(N3CC4(CC4)c4cnc(NC(C)=O)cc43)n2)CCOC1 (centres unmarked)"
  pIC50: "≥ 8.00"
- compound: "CC(=O)Nc1cc2c(cn1)C1(CC1)CN2c1cc(C)cc(N2CC(O)C(O)C2)n1 (centres unmarked)"
  pIC50: "6.00 to 7.00"
- compound: "CC(=O)Nc1cc2c(cn1)C1(CC1)CN2c1cc(C)nc(OCC2CC2)n1"
  pIC50: "6.00 to 7.00"
- compound: "CC(=O)Nc1cc2c(cn1)C1(CC1)CN2c1cccc(C(C)(F)F)n1"
  pIC50: "≥ 8.00"
- compound: "CCc1cc(N2CC3(CC3)c3cnc(NC(C)=O)cc32)nc(C2CCOC2)n1 (centres unmarked) [Example 321, trifluoroacetate]"
  pIC50: "≥ 8.00"
- compound: "CC(=O)Nc1cc2c(cn1)C1(CC1)CN2c1cc(C)nc(N2CC(O)C2)n1"
  pIC50: "7.00 to 8.00"
- compound: "CC(=O)Nc1cc2c(cn1)C1(CC1)CN2c1cc(NCCCF)nc(C(C)(F)F)n1 [Example 164, trifluoroacetate]"
  pIC50: "≥ 8.00"
- compound: "CC(=O)Nc1cc2c(cn1)C1(CC1)CN2c1cc(CC#N)nc(C(C)(F)F)n1"
  pIC50: "7.00 to 8.00"
